These measurements were taken from patent US20260132197A1.

target: T1, Human CD47-C33G (human, UniProt Q08722 19-135); assay: SPR, IgG captured, CD47 in flow; exp 4;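 further: rates fitted from SPR association and dissociation curves, KD estimated from them, the other target is a CD47 C33G mutein, used to obtain true monovalent affinity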
T1 construct: also called CD47 mutein with C33G mutation
T1 sequence (Q08722 19-135 C33G limits assumed): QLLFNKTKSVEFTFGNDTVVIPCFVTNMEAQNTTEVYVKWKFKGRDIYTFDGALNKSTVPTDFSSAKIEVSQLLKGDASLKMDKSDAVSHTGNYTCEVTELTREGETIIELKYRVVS
Returns one of label 1 or label 0; label 1 when kon is >= 200000 M⁻¹ s⁻¹.

>  <BINDER>
chimeric antibody 108C10A6 (antibody, V domains shown, Chimeric antibody with mouse variable domains; captured through human Fc; also called VH / VL) VH: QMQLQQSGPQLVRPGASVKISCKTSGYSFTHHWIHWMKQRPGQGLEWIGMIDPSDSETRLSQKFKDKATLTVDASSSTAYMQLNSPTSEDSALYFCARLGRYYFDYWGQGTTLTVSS VL: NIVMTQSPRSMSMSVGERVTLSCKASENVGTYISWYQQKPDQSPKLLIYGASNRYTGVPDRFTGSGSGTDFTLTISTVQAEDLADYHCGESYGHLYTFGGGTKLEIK

>  <LABEL_CLASS>
label 1

$$$$
>  <BINDER>
108VH10 / 108VL10.M1 (antibody, V domains shown, 4D5-framework series; also called VH10 VL10.M1; straight-graft antibody) VH: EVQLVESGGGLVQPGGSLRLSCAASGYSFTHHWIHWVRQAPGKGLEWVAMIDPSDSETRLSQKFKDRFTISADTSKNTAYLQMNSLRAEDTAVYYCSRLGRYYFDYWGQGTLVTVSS VL: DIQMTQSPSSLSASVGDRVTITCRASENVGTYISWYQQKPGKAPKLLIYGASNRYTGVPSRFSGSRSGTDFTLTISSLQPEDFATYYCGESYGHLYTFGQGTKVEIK

>  <LABEL_CLASS>
label 0

$$$$
>  <BINDER>
108VH10.Mq / 108VL10.Me (antibody, V domains shown, 4D5-framework series; constant regions not restated for this series; also called VH10.Mq VL10.Me) VH: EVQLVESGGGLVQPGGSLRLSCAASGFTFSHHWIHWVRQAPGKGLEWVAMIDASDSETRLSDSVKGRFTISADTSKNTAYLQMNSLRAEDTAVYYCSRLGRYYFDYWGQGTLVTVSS VL: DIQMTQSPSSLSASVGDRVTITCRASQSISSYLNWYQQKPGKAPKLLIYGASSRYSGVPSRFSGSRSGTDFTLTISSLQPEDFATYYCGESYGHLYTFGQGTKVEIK

>  <LABEL_CLASS>
label 0

$$$$
>  <BINDER>
108VH10.Mo / 108VL10.Me (antibody, V domains shown, 4D5-framework series; also called VH10.Mo VL10.Me) VH: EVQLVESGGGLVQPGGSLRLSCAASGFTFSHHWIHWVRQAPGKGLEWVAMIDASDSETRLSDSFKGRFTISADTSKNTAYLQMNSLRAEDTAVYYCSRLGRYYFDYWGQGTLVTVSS VL: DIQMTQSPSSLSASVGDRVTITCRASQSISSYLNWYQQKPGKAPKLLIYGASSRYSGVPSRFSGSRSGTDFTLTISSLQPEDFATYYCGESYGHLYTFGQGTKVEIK

>  <LABEL_CLASS>
label 1

$$$$
>  <BINDER>
108VH10.Mr / 108VL10.Me (antibody, V domains shown, 4D5-framework series; constant regions not restated for this series; also called VH10.Mr VL10.Me) VH: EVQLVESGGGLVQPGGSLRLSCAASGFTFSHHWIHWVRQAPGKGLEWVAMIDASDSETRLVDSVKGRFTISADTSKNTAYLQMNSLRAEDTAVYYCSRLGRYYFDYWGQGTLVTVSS VL: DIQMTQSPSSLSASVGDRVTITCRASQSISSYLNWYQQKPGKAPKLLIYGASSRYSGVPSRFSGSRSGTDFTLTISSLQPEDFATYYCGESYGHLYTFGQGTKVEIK

>  <LABEL_CLASS>
label 0

$$$$
